experiment: NCI Yeast Anticancer Drug Screen. Data for the sgs1 mgt1 strain (AID 161)
cond: S. cerevisiae sgs1 mgt1 strain, at 50.0 µM (retest, dose inferred, filed as 5.0), stronger effect = higher value
About 79,000 compounds went through this panel and 15% of them were active in at least one assay; those are over-represented in the sample as a whole.
Is growth inhibition at least 20%? Then True. If not, False.

- compound: "Nc1ncnc2c1c(-c1ccccc1)cn2-c1ccc(Br)cc1"
  class: "True"
- compound: "COc1ccc2c(c1OC)OCC2C (stereo unspecified)"
  class: "True"
- compound: "O=c1c2cc(Br)ccc2ncn1COCc1ccccc1"
  class: "False"
- compound: "N#CC1C2CCC3(CC2CCN1C(=O)c1ccccc1)OCCO3 (stereo unspecified)"
  class: "True"
- compound: "C/C=C1\\CC(C)(CC)C(C#N)(C#N)C(N)=C1C#N (stereo unspecified)"
  class: "False"
